Target system: human β-amyloid (1–42) (HsAβ42) (Homo sapiens)
Construct: purchased AnaSpec Inc
Sequence (P05067 672-713 limits assumed): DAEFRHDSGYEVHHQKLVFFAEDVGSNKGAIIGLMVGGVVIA
Assay notes: Inhibition of HsAβ42 self-aggregation (thioflavin T fluorescence)
Format: biochemical
Condition context: HsAβ42 50 µM, compound 100 µM, 24 h, 37 °C; n.a. = not active
Measured metric: HsAβ42 self-Aggregation Inhibition, (%)
Report as a plain number; the unit % is understood.

Exercise: Please indicate HsAβ42 self-Aggregation Inhibition, (%) recorded for C=C[c-]1cccc1.[Fe+2].c1ccc2nc(-[c-]3cccc3)ccc2c1 [7b, 1-(Quinolin-2-yl)-1′-Vinylferrocene]
Key: 89.6

Exercise: Please indicate HsAβ42 self-Aggregation Inhibition, (%) recorded for [Fe+2].c1cc[cH-]c1.c1ccc(-[c-]2cccc2)nc1 [1a]
Key: 43.4

###

Target system: EcBChE (Equus caballus, UniProt P81908)
Construct: equine (Equus caballus) serum BChE (EcBChE)
Sequence (P81908 whole entry): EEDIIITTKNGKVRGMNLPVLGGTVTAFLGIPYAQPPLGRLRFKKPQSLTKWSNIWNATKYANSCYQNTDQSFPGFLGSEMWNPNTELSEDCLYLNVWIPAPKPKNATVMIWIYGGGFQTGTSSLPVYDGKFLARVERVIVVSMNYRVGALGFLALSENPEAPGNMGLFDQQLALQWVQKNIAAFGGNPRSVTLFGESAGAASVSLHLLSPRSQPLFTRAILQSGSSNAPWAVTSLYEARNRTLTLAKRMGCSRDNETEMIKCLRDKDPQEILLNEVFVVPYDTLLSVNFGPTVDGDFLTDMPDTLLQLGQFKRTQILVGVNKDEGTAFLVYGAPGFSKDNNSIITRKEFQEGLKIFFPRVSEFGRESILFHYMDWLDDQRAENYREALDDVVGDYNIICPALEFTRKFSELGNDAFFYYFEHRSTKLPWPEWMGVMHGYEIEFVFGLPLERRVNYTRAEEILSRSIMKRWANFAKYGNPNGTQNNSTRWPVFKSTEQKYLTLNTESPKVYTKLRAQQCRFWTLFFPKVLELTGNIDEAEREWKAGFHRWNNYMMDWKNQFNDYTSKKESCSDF
Assay notes: Kinetic study of EcBChE inhibition (Lineweaver-Burk)
Condition context: read-out: competitive component of inhibition constant (Ki), EcBChE
Method: . To determine the relationship between enzyme activity and inhibitor concentration at different substrate levels, we conducted kinetic assays. […] To investigate the mechanisms of HsAChE and EcBChE inhibition, enzyme kinetics were analyzed (detailed in [92]). After a 5 min equilibration at 25 °C with three different inhibitor concentrations and six substrate concentrations, residual enzyme activity was measured as described. […]
Measured metric: Ki (nM)
Report as a plain number; the unit nM is understood.

Exercise: Please indicate Ki recorded for C=C[c-]1cccc1.[Fe+2].c1ccc2nc(-[c-]3cccc3)ccc2c1 [7b, 1-(Quinolin-2-yl)-1′-Vinylferrocene]
Key: 2770

###

System: reprogrammed human neuronal cell cultures (MSC-Neu)
Assay notes: Cytotoxicity, MTT test, MSC-Neu
Condition context: read-out: Cytotoxic activity, LC50, MSC-Neu, 24 h, 1 to 1024 μM, mean ± SE, n = 3
Measured metric: CC50 (µM)
Report as a plain number; the unit µM is understood.

- Compound: "C=C(C)[c-]1cccc1.[Fe+2].c1ccc2nc(-[c-]3cccc3)ccc2c1"
  Unit tag: "µM"
  Quantitative readout: 564
- Compound: "C=C[c-]1cccc1.[Fe+2].c1ccc2nc(-[c-]3cccc3)ccc2c1"
  Unit tag: "µM"
  Quantitative readout: 277
- Compound: "C=C[c-]1cccc1.[Fe+2].c1ccc(-c2cccc(-[c-]3cccc3)n2)nc1"
  Unit tag: "µM"
  Quantitative readout: 299
- Compound: "C=C(C)[c-]1cccc1.[Fe+2].c1ccc(-c2cccc(-[c-]3cccc3)n2)nc1"
  Unit tag: "µM"
  Quantitative readout: 414
- Compound: "CC(=C(c1ccc(O)cc1)c1ccc(O)cc1)[c-]1cccc1.[Fe+2].c1cc[cH-]c1 [compound 10, reference compound]"
  Unit tag: "µM"
  Quantitative readout: 104
- Compound: "[Fe+2].c1cc[cH-]c1.c1ccc2nc(-[c-]3cccc3)ccc2c1"
  Unit tag: "µM"
  Quantitative readout: 393

Exercise: Please indicate CC50 recorded for CC(=C(c1ccc(O)cc1)c1ccc(O)cc1)[c-]1cccc1.[Fe+2].c1ccc2nc(-[c-]3cccc3)ccc2c1 [compound 11, reference compound]
Key: 139

Exercise: Please indicate CC50 recorded for [Fe+2].c1cc[cH-]c1.c1ccc(-c2cccc(-[c-]3cccc3)n2)nc1
Key: 632
